All values here come from PubChem BioAssay AID463173.

System: Wild type
Assay: S. aureus survival, RN4220 and DeltatarO strains – OD600, teichoic acid synthesis inhibitors, primary screen (AID 463173)
Conditions: S. aureus RN4220 wild type/DeltatarO growth, OD600, 18 h, screened at 18.75 µg/mL (by protocol)
Screen size: about 52,000 compounds; about 1,700 (3.3%) were called active. Rule as the data show it: active = survival mostly below about 52% (no sharp cut-off); inactive = mostly above about 56%. The entries come from a sample that favours actives as a whole.
Lab note: assign the record to one of true (active), false (inactive)

Query string: Test call for this compound, please: COc1ccc(N2CC(NC(=O)c3ccc(OC(C)C)cc3)CC2=O)cc1 (configuration not stated)
Result string: true

Query string: # fetch the recorded call for `Cc1c(Cl)cccc1NC(=O)c1cc2nc(-c3ccc4c(c3)OCO4)cc(C(F)(F)F)n2n1` here
Result string: false

Query string: # fetch the recorded call for COc1ccc(C(=O)NC2CC(=O)N(c3ccc4c(c3)OCCO4)C2)cc1 (configuration not stated) here
Result string: false

Query string: Give the logged outcome of this assay for the following compound: O=C(Cc1cccs1)NC1CC(=O)N(c2ccc(F)cc2)C1 (configuration not stated)
Result string: false

Query string: Record request — test call for COc1ccc(NC(=O)C(Cc2ccccc2)n2cccc2)c(OC)c1 (configuration not stated)
Result string: false

Query string: Hey, what did the test say about `CC1CCN(c2ccc(-c3nc(-c4ccccc4)no3)cc2[N+](=O)[O-])CC1` ?
Result string: false

Query string: Hi, do you know how Cc1ccc(N2CC(NC(=O)Cc3cccs3)CC2=O)cc1 (configuration not stated) came out in this test?
Result string: true

Query string: Tell me the assay call for CCc1ccccc1N1CC(c2nc3ccccc3n2CCCCOc2ccccc2)CC1=O (configuration not stated) please.
Result string: true

---

Tested on: Wild type
Test: S. aureus survival, RN4220 and DeltatarO strains – OD600, teichoic acid synthesis inhibitors, primary screen (AID 463173)
Details: S. aureus RN4220 wild type/DeltatarO growth, OD600, 18 h, hits give low values, screened at 18.75 µg/mL (by protocol)
In all, about 52,000 compounds went through this assay and about 1,700 (3.3%) were called active. What follows is part of a selection rich in actives, with near analogues and random picks from the rest.
measured.quantity: survival (%)
Unit % implied. Number only.

Record excerpt, results attached:
>  <compound>
O=C(NCC1CCN(Cc2cccc(Cl)c2)CC1)Nc1cc(Cl)ccc1Cl

>  <recorded.measurement>
-1

$$$$
>  <compound>
O=C(NCC1CCN(Cc2cccc(Cl)c2)CC1)Nc1ccc(F)c(Cl)c1

>  <recorded.measurement>
14

$$$$
>  <compound>
O=C(CCSCc1cccc(Cl)c1)NCc1ccc(F)cc1Cl

>  <recorded.measurement>
66

$$$$
>  <compound>
Cc1cccc(NC(=O)CSC2=Nc3ccccc3C3=NC(CC(=O)NCc4cccs4)C(=O)N23)c1 (configuration not stated)

>  <recorded.measurement>
81

$$$$
>  <compound>
CCc1cccc(CC)c1NC(=O)C(CC)n1nc(C)n2c(cc3cc(C)ccc32)c1=O (configuration not stated)

>  <recorded.measurement>
73

$$$$
>  <compound>
CCc1noc(-c2ccc(N3CCC(C)CC3)c([N+](=O)[O-])c2)n1

>  <recorded.measurement>
93

$$$$

Query string: Given the entry `O=C(CCSCc1ccccc1Cl)NCCc1ccccc1` , report its measured survival.
Result string: 74

Query string: # lookup: survival of `Cc1ccc(-n2ncc(C(=O)N3CCN(Cc4ccccc4)CC3)c2C2CCN(C(=O)OC(C)(C)C)CC2)cc1`
Result string: 124

Query string: Which measured survival value corresponds to Cc1ccc(CN2CCC(CNC(=O)Nc3cccc(Cl)c3C)C2)cc1 (configuration not stated) ?
Result string: 88

Query string: GET /values?readout=survival&item= `O=C(CCCCn1c(=O)c2ccccc2n(Cc2cccc(Cl)c2)c1=O)NCc1ccc2c(c1)OCO2`
Result string: 98

Query string: Dear colleague, I am looking for the recorded survival of the following compound: `Cc1onc(-c2c(Cl)cccc2Cl)c1C(=O)n1c(C)nc2ccccc21`
Result string: 105

Query string: Quick one: survival of COc1ccc(C(CC(=O)Nc2ccc(C(C)=O)cc2)N2Cc3ccccc3C2=O)cc1 (configuration not stated) ?
Result string: 88
